System: K4 kissing-loop RNA reporter
Assay: apparent KD of K4 kissing-loop reporter; higher = weaker reporter binding
Settings: Eterna round: R107; input ligand: tryptophan 2.4 mM
// N strictly below 300 nM in apparent KD of K4 kissing-loop reporter; Y otherwise

Solved entries (count: 3):
primarySequence	cat
AACUCUCAGGCACCUGAGUGAUGUUCAGGCCGAGGACCGGUACGGCCGCCACUCGGGCCUGAGAGAGGUUAUCAAAGAUAGCCAA [Omei KL Tryp A SS A v2]	Y
GGAUAGGACUGAGGAUAUGGGCUAGGCAAGAAUAACUUGUCUAGCAAAUCCAUGAGGAGUGAUGUUCCAGAAGGCGGUCCUAUCG [FmnBX 1 U10+G76]	N
ACCUAGUAGACAGGAUAUCACCAUGACAGUGAUGUUGUCAUGCUCGAUUUGAGGAAACUCAGAUCGUGAGAAGGGUCUAACGACU [FMN B SS t7]	N

Input: Is the recorded value of apparent KD of K4 kissing-loop reporter equal to or greater than 300 nM for this sequence? CGUGAGGACCUGAGGUGAUGUAUAGUAUCGCGAGGACCGGUACGGCCGCCACUCGUGAAGAGAAAGGAGUGAUGUUCCGUAAGGG
Output: N

Input: Please give the result for GCUAGGCAUGCAGGAUAUCGUGGAGUGAUGUUCCGUUGGCUGCUAGCGGAAAACGCUAGCAGCCUACGAGAAGGGCAUGCCUAGC too.
Output: Y

Input: Please give the result for UGGCGGCAAGGGUUAUUGGAAAGUAUUCGUCGAGGACCGGUACGGCCGCCACUCGAACACCAGUGAUGUUGGUCUGGUUUAAGCU [Exclusion Tryptophan A GF 22] too.
Output: Y

Input: Please give the result for AAACAGCACUGGGAGUGAUGUUCUCAGUGACGAGGACCGGUACGGCCGCCACUCGCGAGAGAACUAGUCUAGACUUGACUGCAUA [Excl Tryptophan A V15] too.
Output: N

* * *

Tested on: MS2 coat protein
Test: apparent KD of MS2 coat protein, switch ON state; designed switch direction (-1 OFF switch, 1 ON switch): -1; higher = weaker reporter binding
Conditions: FMN input: 0 or 200 uM; Eterna round: R93 (includes R88 designs)
recordedMetric: apparent KD of MS2 coat protein
The reply should consist of the numeric value with the unit placed after it.

Known apparent KD of MS2 coat protein results, listed for orientation:
primarySequence	apparent KD of MS2 coat protein
AAAAAGGCAGGAUAUACAUGAGGAUCACCCAUGUAAAGAAAGAAAGAGGUGAAAGAAAGUAGAAGGGCCAAAAA [Ex3 sub 2]	92.9 nM
AAGAAGUCAGGAUAUGCUGCUCGUCACGAAAGUGAUGAGUAGCAGAAGGGACAUGAGGAUCACCCAUGUAAAGA [Exclusion 4.1 (Exclusion4-cac2 - the real original)]	55.2 nM
GAAAAGUGAGGAUAUGUCAAAAGUCACAAAAGUGACAAAAGACAGAAGGCACAUGAGGAUCACCCAUGUGGAAA [Mat - Exaclusion 4 - Eli mod - D51]	30.9 nM
AGGAAACAUGAGGAUCACCCAUGUGAGGAUAUUCAAAAGAAAAGAAAAGAAAGAAGAAGAAGAAGGUACAAGAA [Neferefre]	28.3 nM
CUCUUGUGAGGAUAUUCAAGAAAAGAAGAGAAAGAAAAGAAGAAGAAGGCACAUGAGGAUCACCCAUGUAAGAA [EteRNA is fun!]	25 nM

I'm hoping you can list apparent KD of MS2 coat protein for every sequence here, please.
1. AAAAAGCUAGGAUAUACAUGAAAAAAAAAAAAGUAAAAAAAACAUGAGGAUCACCCAUGUAGAAGGAGCAAAAA [water's exclusion 2 last]
2. AAAAAGAGAGGAUAUACAUGAGGAUCACCCAUGUGACAUUAAAUAAAUAAAAUAAAAUGUAGAAGGCUCAAAAA [65%, Moding Exclusion3-cac2, 22]
3. AUAAAGUCAGGAUAUGUAAAAAUAACGAAAGUUAUAAAUAAACAGAAGGGACAUGAGGAUCACCCAUGUGGAAU [Meechl MS2 EX4 62% 3]

Output:
1: 40.4 nM; 2: 38.6 nM; 3: 54.2 nM

* * *

Tested on: MS2 coat protein
Assay: apparent KD of MS2 coat protein; designed switch direction (-1 OFF switch, 1 ON switch): 1; higher = weaker reporter binding
Settings: input ligand: none
I'd be grateful if you could share measured apparent KD of MS2 coat protein for these entries.
One number for each entry, in nM.

Known apparent KD of MS2 coat protein results, listed for orientation:
primarySequence	measuredOn	apparent KD of MS2 coat protein [nM]
AGCUAUCGAAAACGAUAGCAAAGGCAUGUACAUGAGGAUCACCCAUGUCAUGUACAAGCUUUUUGCUCGUCUUAAAA [Zipper 23 - 3] (Eterna round: R96, puzzle: Sensor for hsa-mir-208a)	MS2 coat protein	440
AUACCAUCAGGAGGAUAUGGCACCUUAUUGGUGCCAGAAGGUCUAACAUGAGGAUCACCCAUGUGGGAGUGGUCUAAUGACCAC [Eli NG1ss - 86] (Eterna round: R96, puzzle: Same State NG 1)	MS2 coat protein	91
CGGCUCCGUGGAGGAUAUGGGCCUGCCCGGGAUAACGGGCCUAACACAUGAGGAUCACCCAUGUCCCAGAAGGCCGCUGGAGCC [Enineseson] (Eterna round: R96, puzzle: Same State NG 2)	MS2 coat protein	54.4

Shifting focus to the sequence that follows.
Input: apparent KD of MS2 coat protein lookup needed for UGAACCUUCACAGGAUAUCAUGCGAAAAUUGCGUGAGAAGGGUGGAUGUGGUGUUCAAAGAUGCACAUGAGGAUCACCCAUGUA [SameState NG1 #48] (Eterna round: R96, puzzle: Same State NG 1) , thanks.
Output: 203

* * *

System: K4 kissing-loop RNA reporter
Assay: apparent KD of K4 kissing-loop reporter; higher = weaker reporter binding
Conditions: Eterna round: R107; input ligand: none
// no (0) strictly below 200 nM in apparent KD of K4 kissing-loop reporter; yes (1) otherwise

Solved entries (count: 2):
primarySequence	measuredOn	cat
AGUGAUGUUUUUUUUAAGAGUGAUGUUUUUCGAGGACCGGUACGGCCGCCACUCGAGUGAUGAGUGCGGUGUUGUGAUGUUUAGU [ewmullin]	K4 kissing-loop RNA reporter	yes (1)
GGUAGGGCAGCUGCGGAAACGCAGCAUAUCGAGGAUAUCGGGAAACCGAGAAGGCGAGUAGUGAUGUUACUGGUUUAGCCCUACC	K4 kissing-loop RNA reporter	no (0)

Input: Is the recorded value of apparent KD of K4 kissing-loop reporter equal to or greater than 200 nM for this sequence? UUGUUUGGUUGAGAGGUUGGGCGAGAUGAUACCAGUAUAUAAGAAUACCCUUGGCAGCAUAAGAAAGAUAUAGUGAUGUUGUAUA [SSTheophA.M]
Output: yes (1)

Input: Please give the result for AGCAAUAUCACGGCCGCCACUGAUUAUUGUUUUUAUAGUUAUAAAUCUUGCCAGUGAUGUUGGUUCAGGACCGGGUGAGUUAAUA [JR_SSTryptoB_Sub002] too.
Output: yes (1)

Input: Please give the result for AUGCAUCAGACUUGAUACGGUGAAAUAGCCCGAGGACCGGUACGGCCGCCACUCGGUCCAGUGAUGUUGGAUAAUUAAUCUAGGU [theeternabot_sameState_KL_Trp_A_34] too.
Output: yes (1)

Input: Please give the result for UAAUUUAUGUCUUUAAUAUAAUUUUCAGAUACCAGUGAUUAUUAACACCCUUGGCAGCUGUAUAGAGUGAUGUUCUUAUGCUUAA [JR_ExcTheophyA_Sub009] too.
Output: yes (1)

* * *

System: K4 kissing-loop RNA reporter;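 further: bound reporter read as fluorescence of individual clusters on recovered sequencing chips by microscopy, with normalized cluster intensities fitted with a binding model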
Assay: apparent KD of K4 kissing-loop reporter; higher = weaker reporter binding
Conditions: Eterna round: R107; input ligand: tryptophan 2.4 mM
// Not fulfilled strictly below 200 nM in apparent KD of K4 kissing-loop reporter; Fulfilled otherwise

Solved entries (count: 3):
primarySequence	cat
UCUCGGGCCAGUGAUGUUGGCGGCAAGUGGCGAGGACCGGUACGGCCGCCACUCGGCGCAGCAGCGGAGUGAUGUUUCGUGAGUA [Same State Tryptophan A GF 16]	Fulfilled
UAAGAAUAACAUGCAGUGAUGUUGCAUGUACGAGGACCGGUACGGCCGCCACUCGAGUCCUCGAACAUGCACCGAGGAAUAACAA [(H,1)-(H,2)-(Trp1)-(Trp2)-(T)'-(H)'-(T)'']	Fulfilled
GUAUCGCUAGGAGGAUAUUUCAAAUAAUAAAUAAAUGGAUAUUCGGAGUGAUGUUCCGAUUUACGGAAAGAAGGCCUAGUGAUAC [FMN B 2]	Not fulfilled

As a next step, examine the sequence that follows.
Input: Is the recorded value of apparent KD of K4 kissing-loop reporter equal to or greater than 200 nM for this sequence? GGCCGGCCGGGAAGGAGCGGGAGUGAUGUUUUCGCAAAGAAAGAUAUAAAAGAAACGAAAUCCCAGGUAGGUCGCCCGGCCGGUU
Output: Not fulfilled
